# IC50 listing for each entry below
Biological target: menin/MLL (terbium chelate-labeled menin, FITC-MBM1 peptide) (Homo sapiens, UniProt O00255, T541A)
Construct: Menin (a.a 1-610-6xhis tag)
Sequence (O00255 with tags, fused parts or gaps T541A): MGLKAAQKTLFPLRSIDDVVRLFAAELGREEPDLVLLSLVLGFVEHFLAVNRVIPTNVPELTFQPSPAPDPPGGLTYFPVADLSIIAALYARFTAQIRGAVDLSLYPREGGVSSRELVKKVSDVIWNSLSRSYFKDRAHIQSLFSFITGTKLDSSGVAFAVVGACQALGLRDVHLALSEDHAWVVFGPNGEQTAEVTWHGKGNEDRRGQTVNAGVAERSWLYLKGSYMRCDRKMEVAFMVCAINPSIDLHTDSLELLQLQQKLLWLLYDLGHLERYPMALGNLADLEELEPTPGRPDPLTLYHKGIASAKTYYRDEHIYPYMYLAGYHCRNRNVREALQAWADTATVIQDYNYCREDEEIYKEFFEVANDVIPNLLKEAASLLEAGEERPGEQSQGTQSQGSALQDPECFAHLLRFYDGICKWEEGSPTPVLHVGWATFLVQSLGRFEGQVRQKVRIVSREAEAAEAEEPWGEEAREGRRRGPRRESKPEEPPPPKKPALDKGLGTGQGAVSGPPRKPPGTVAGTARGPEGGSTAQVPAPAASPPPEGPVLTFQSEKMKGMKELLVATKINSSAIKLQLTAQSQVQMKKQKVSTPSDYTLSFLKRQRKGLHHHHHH
Test: Menin/MLL homogenous time-resolved fluorescence (HTRF) assay
Settings: 30 min incubation
property: IC50 (nM)

compound	property	numericValue
CC(=O)N1CCC12CN([C@H]1C[C@H]([C@@H](C(C)C)N3CC4(CCN(c5ncnnc5Oc5ccc(F)cc5-c5cncnc5C5CC5)C4)C3)C1)C2 (single isomer, unassigned) [Compound 173]	IC50	0.2
CC(C)[C@H]([C@H]1C[C@@H](N2CCC(O)CC2)C1)N1CC2(CCN(c3ncnnc3Oc3ccc(F)cc3-c3cncnc3C3CC3)C2)C1 (single isomer, unassigned) [Compound 22]	IC50	0.1
CC(=O)N1CC2CN([C@H]3C[C@@H]([C@H](C(C)C)N4CC5(CCN(c6ncnnc6Oc6ccc(F)cc6-c6cnc(C)nc6C6CC6)C5)C4)C3)CC2C1 (some centres unmarked) [Compound 375]	IC50	0.055
CC(C)C([C@H]1C[C@@H](Nc2cncnc2)C1)N1CC2(CCN(c3ncnnc3Oc3ccc(F)cc3-c3cncnc3C3CC3)C2)C1 (some centres unmarked) [Compound 193]	IC50	0.2
CC(C)C([C@H]1C[C@@H](NCC(C)(C)O)C1)N1CC2(CCN(c3ncnnc3Oc3ccc(F)cc3-c3cncnc3C3CC3)C2)C1 (some centres unmarked) [Compound 133]	IC50	0.1
